- study-system: PI3Kα (Homo sapiens, UniProt P42336)
- Sequence (P42336 whole entry): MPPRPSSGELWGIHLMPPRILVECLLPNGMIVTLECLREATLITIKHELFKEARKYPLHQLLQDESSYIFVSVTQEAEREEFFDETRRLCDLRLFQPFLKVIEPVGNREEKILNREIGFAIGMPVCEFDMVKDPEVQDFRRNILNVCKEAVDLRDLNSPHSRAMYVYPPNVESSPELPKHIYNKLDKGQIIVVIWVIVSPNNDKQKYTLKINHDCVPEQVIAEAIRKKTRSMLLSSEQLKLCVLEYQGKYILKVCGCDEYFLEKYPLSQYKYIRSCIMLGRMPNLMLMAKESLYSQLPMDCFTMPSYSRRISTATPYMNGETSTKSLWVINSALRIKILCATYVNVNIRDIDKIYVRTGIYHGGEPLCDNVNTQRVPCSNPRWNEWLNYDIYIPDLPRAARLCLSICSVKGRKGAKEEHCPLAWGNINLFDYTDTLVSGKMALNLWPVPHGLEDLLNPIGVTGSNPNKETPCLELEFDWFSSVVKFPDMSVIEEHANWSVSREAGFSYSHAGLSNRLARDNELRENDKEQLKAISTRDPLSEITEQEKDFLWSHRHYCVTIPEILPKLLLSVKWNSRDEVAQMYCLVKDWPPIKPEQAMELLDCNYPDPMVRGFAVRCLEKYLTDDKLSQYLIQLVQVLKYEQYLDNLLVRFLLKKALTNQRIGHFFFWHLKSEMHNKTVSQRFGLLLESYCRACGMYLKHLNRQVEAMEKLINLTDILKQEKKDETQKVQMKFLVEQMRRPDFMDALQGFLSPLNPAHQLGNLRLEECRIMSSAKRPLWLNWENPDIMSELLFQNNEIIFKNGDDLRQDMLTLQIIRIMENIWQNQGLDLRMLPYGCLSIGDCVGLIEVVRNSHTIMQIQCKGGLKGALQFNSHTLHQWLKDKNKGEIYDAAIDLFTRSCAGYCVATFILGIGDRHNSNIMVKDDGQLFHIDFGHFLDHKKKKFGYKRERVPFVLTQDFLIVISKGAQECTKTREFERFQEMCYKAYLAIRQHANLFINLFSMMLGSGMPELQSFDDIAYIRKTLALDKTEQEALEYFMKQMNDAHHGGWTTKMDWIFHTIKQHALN
- Sequence (P27986 whole entry partner): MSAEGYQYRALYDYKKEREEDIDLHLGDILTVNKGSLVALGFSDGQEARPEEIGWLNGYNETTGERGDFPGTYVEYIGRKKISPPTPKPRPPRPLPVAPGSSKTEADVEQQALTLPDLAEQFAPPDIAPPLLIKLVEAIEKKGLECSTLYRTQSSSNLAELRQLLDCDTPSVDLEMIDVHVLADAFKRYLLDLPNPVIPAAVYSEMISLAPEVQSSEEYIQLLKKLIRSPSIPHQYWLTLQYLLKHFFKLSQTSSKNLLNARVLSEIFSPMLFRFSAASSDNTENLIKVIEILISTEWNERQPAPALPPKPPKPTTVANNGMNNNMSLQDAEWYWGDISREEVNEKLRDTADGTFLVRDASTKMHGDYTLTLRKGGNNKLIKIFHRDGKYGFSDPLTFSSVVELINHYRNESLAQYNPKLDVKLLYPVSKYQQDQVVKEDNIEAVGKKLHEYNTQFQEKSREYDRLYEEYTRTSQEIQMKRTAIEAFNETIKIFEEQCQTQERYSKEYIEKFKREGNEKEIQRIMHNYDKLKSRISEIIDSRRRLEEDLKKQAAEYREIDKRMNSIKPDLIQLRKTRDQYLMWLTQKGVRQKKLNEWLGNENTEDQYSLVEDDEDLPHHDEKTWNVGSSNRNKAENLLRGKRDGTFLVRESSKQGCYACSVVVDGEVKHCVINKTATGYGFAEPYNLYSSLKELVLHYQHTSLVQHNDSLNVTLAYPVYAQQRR
- protocol: pAKT S473 ELISA in A549 cells (PI3Kα activation)
- Type: cell-based
- Set-up: endogenous in cells; host or cells: A549
- details: A549 cells, 15 min treatment, pAKT S473 ELISA, normalised to Emax of 1 μM insulin; read-out: Av EC50
pEC50: −log10 of the molar value.
// reported pEC50 per item

compound: COc1cc(N2CCN(C)CC2)ccc1Nc1cc(Nc2cc(C(C)(C)C)nn2C)ccn1 [29 (1998)]
study-system: PI3Kα (Homo sapiens, UniProt P42336)
value-qualifier: =
pEC50: 6.05
--
compound: CC(=O)N1CCc2cccc(Nc3ccnc(Nc4ccccc4)c3)c21 [39 (2016)]
study-system: PI3Kα (Homo sapiens, UniProt P42336)
value-qualifier: <
pEC50: 4.30
--
compound: CNC(=O)c1ccc(Nc2ccnc(Nc3ccc(N4CCN(C)CC4)cc3OC)c2)cc1 [61 (2055)]
study-system: PI3Kα (Homo sapiens, UniProt P42336)
value-qualifier: =
pEC50: 5.58
--
compound: COc1cc(N2CCN(C)CC2)ccc1Nc1cc(Nc2cccc(-n3cnnc3)c2)ccn1 [66 (2064)]
study-system: PI3Kα (Homo sapiens, UniProt P42336)
value-qualifier: =
pEC50: 4.76
--
compound: COc1cc(N2CCN(C)CC2)ccc1Nc1cc(Nc2ccccc2)ccn1 [23 (1971)]
study-system: PI3Kα (Homo sapiens, UniProt P42336)
value-qualifier: =
pEC50: 5.34
--
compound: COc1cc(N2CCN(C)CC2)ccc1Nc1nccc(Nc2cccc3c2N(C(C)=O)CC3)c1F [18 (1951)]
study-system: PI3Kα (Homo sapiens, UniProt P42336)
value-qualifier: =
pEC50: 5.51
--
compound: CCN1CCN(c2ccc(Nc3cccc(Nc4cccc5c4N(C(C)=O)CC5)c3)cc2)CC1 [99 (2346)]
study-system: PI3Kα (Homo sapiens, UniProt P42336)
value-qualifier: <
pEC50: 4.30
--
compound: COc1cc(N2CCN(C)CC2)ccc1Nc1cc(Nc2cccc(-n3ccnc3)c2)ccn1 [65 (2063)]
study-system: PI3Kα (Homo sapiens, UniProt P42336)
value-qualifier: =
pEC50: 5.82
--
compound: CCN1CCN(c2ccc(Nc3cc(Nc4ccc(C(=O)NC)cc4)ccn3)cc2)CC1 [79 (2105)]
study-system: PI3Kα (Homo sapiens, UniProt P42336)
value-qualifier: =
pEC50: 5.08
--
compound: CC(=O)N1CCc2cc(Nc3cc(Nc4cccc5c4N(C(C)=O)CC5)ccn3)ccc21 [72 (2072)]
study-system: PI3Kα (Homo sapiens, UniProt P42336)
value-qualifier: =
pEC50: 5.97
--
compound: COc1cc(N2CCN(C)CC2)ccc1Nc1cc(Nc2ccc3scnc3c2)ccn1 [51 (2031)]
study-system: PI3Kα (Homo sapiens, UniProt P42336)
value-qualifier: =
pEC50: 6.51
